Give measured growth inhibition for each item. Keep answers brief.
# experiment_notes: NCI Yeast Anticancer Drug Screen. Data for the sgs1 mgt1 strain (AID 161);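 note: 0% = growth of cultures given vehicle only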
# condition_description: S. cerevisiae sgs1 mgt1 strain, at 50.0 µM, stronger effect = higher value
Compounds without any hit were thinned out: in the full panel of roughly 79,000, 15% have a hit. Where a SMILES comes first, the peptide text is derived from it. The star is where a group is joined. Myristoyl = CCCCCCCCCCCCCC(=O)*
Output spec: scalar in %, unitless text.

Ask: # growth inhibition lookup, item COc1cc2c(c(O)c1OC)C(=O)[C@@H]1CCC(=O)N1C2c1ccccc1 (some centres undefined)
Reply: 19.4

Ask: Further, for C[C@@]1(N2C(=O)OC(c3ccccc3)C2=O)C(=O)N2CCS[C@@]21c1ccccc1 (some centres undefined) ?
Reply: 11.8

Ask: Note, next up: CCOC(=O)/N=c1/nc(N(C)C)ss1
Reply: 4.15

Ask: Next compound up: Nc1cccc(OCC(O)CN2CCN(c3ccccc3)CC2)c1 (centres undefined)
Reply: 0.1

Ask: For O=C(Nc1ccc(C2=NCCN2)cc1)c1cncc(C(=O)Nc2ccc(C3=NCCN3)cc2)c1 then?
Reply: 16.4

Ask: Next entry: CC(C)C1CC(O)C(C)C(C(C)C)C1 (centres undefined)
Reply: -12.9

Ask: Then CS(=O)(=O)CCC(Nc1ccc([N+](=O)[O-])cc1[N+](=O)[O-])C(=O)O (centres undefined) ?
Reply: 22.1

Ask: Consider next the compound CC(C)CC(C)(O)C#CC(C)(O)CC(C)C (centres undefined) in the same way.
Reply: -12.7

Ask: Try this compound too: Cc1ccc(S(=O)(=O)OCC(F)(F)C(F)(F)C(F)(F)CO)cc1
Reply: 22.2

Ask: // repeat for CN1N=C(c2ccccc2)C(C(c2ccccc2[N+](=O)[O-])C2C(=O)N(C)N=C2c2ccccc2)C1=O (centres undefined) and report
Reply: 8.5

Ask: Check CC(=O)Nc1ccc2oc(=O)[nH]c(=O)c2c1 too.
Reply: 6.3

Ask: Moving on to the next compound: CCCCCCCCCCCCCC(=O)NCC(=O)NC(C)C(=O)NC(CCCNC(=N)N)C(=O)NC(C)C(=O)NC(CO)C(=O)NC(C(=O)NC(CC(C)C)C(=O)NC(CO)C(=O)NCC(=O)NCC(=O)NC(CCC(=O)O)C(=O)NC(CC(C)C)C(=O)NC(CC(=O)O)C(=O)NC(CCCNC(=N)N)C(=O)NC(Cc1c[nH]c2ccccc12)C(=O)NC(Cc1ccc(O)cc1)C(N)=O)C(C)C (centres undefined) (Myristoyl-GARASVLSGGELDRWY-NH2; configuration not given here)
Reply: -12.7

Ask: Same lookup for CCNc1nc(C)nc2c1cnn2C , please.
Reply: -1.85

Ask: Next compound: CN(C)c1ncnc2c1ccn2CC(O)CO (centres undefined)
Reply: -8.55

Ask: Queued: COc1ccc(NC(=O)CCc2cc(C(C)(C)C)n[nH]2)cc1
Reply: -3.8

Ask: Now the same for CN1CCC(=C2c3ccccc3CC(O)c3sccc32)CC1 (centres undefined)
Reply: -16.6

Ask: # repeat for Cc1ccc2ccccc2[n+]1CC(=O)c1ccc([N+](=O)[O-])cc1
Reply: -9.3

Ask: Now consider CN(C)C1C(CO)C(CO)C1(C)C (centres undefined) and answer again.
Reply: -3.9

Ask: Continue with Cc1cccc(NC(=O)c2cccc([N+](=O)[O-])c2C(=O)O)c1C
Reply: 3.75

----------
Please provide measured growth inhibition for the entries that follow.
# experiment_notes: NCI Yeast Anticancer Drug Screen. Data for the bub3 strain (AID 167)
# condition_description: S. cerevisiae bub3 mutant strain, at 50.0 µM, stronger effect = higher value
About 79,000 compounds went through this panel and 15% of them were active in at least one assay; those are over-represented in the sample as a whole.
Just the number please, in %, no unit attached.

Ask: Return reported growth inhibition; argument: CCOC(=O)c1cn(CC)c2ccc3ccsc3c2c1=O
Reply: -9.4

Ask: Try this compound next: [N-]=[N+]=NC12CC3CC4C5CC(CC41)CC2[C@H]5C3
Reply: -17.1

Ask: Follow-up entry: C=C1C(=O)OC2C1C(=O)C/C(C)=C/CCC1(C)OC21 (configuration not stated)
Reply: 66

Ask: Field entry: O=c1cc2c(n[nH]1)CCCC2
Reply: -0.75

Ask: Proceed to C=C1CC[C@H]2C(=O)OC(c3ccoc3)C[C@]2(C)C/C=C\C=C/1C(=O)OC (some centres not stated)
Reply: -27.2

Ask: And the next one, Clc1ccccc1C1OCCCO1 ?
Reply: -8.1

Ask: And then N=C(N)SCc1ccc(Cl)cc1Cl (tested in a mixture with another compound) , what is it?
Reply: 7.9

Ask: Repeat with Cc1ccc(-c2nc3scc(C)n3n2)cc1
Reply: 7.65

Ask: Cc1nc(C(=O)N=C(N)N)c(N)nc1-c1ccccc1 , same question.
Reply: -4.8

Ask: Thanks! And COc1ccc(/C(N)=N/OCc2ccc(C#N)cc2)cc1 ?
Reply: 20.7

Ask: Another compound to look at: CCOC(=O)C1C(c2cc(OC)c(OC)c(OC)c2)c2cc3c(cc2OC1(C)OC)OCO3 (configuration not stated)
Reply: -5.25

Ask: Try the compound COc1ccc([N+](=O)[O-])c2c1CONC2(C)C(=O)O (configuration not stated)
Reply: 3.75

----------
# experiment_notes: NCI Yeast Anticancer Drug Screen. Data for the mec2-1 strain (AID 157)
# condition_description: S. cerevisiae mec2-1 strain, at 50.0 µM, stronger effect = higher value
The panel holds about 79,000 compounds, 15% with a hit somewhere; the sample as a whole holds those more often.
experimental_readout: growth inhibition (%)
Give just the number in %; leave the unit off.

Ask: Reported growth inhibition, compound CN(C)/N=N/c1nc2c(c(=O)n(C)c(=O)n2C)n1C : ____
Reply: 20.2

Ask: Please answer likewise for Cc1cc(C)cc(Cc2ccc3ccccc3c2)c1
Reply: -3.65

Ask: Now the compound O=c1[nH]c2c([N+](=O)[O-])cc(Cl)cc2nc1/C=C(\O)c1ccncc1
Reply: 8.75

Ask: Please do the same for CCOC(=O)C(C#N)C1CCCC(C)CC1 (centres undefined) as well.
Reply: 6.5

Ask: Then O=C(NCCNCCO)N/N=C/c1ccccc1 ?
Reply: -34.4

Ask: Next compound: Cc1ccc(Sc2cc([N+](=O)[O-])cc(Sc3ccc(C)cc3)c2Sc2ccc(C)cc2)cc1
Reply: -24.7

Ask: Record: CCOC(=O)c1cnc2cc3c(cc2c1Nc1cccc(C)c1)OCO3
Reply: -5

Ask: What about this compound? NC(=S)Nc1ccccc1Cl
Reply: -6.2

Ask: Then this compound: CCC(C)Sc1nc2ccc(NC(=O)/C=C/C(=O)O)cc2s1 (centres undefined)
Reply: 10

Ask: Similarly, O=C1CSC(c2cccs2)N1c1nncs1 (centres undefined) ?
Reply: -14.8

Ask: Would you mind doing C=CCOc1cc2c(cc1Cc1cc(OC)c(OC)c(OC)c1)OCO2 as well?
Reply: -20.8

Ask: And for O=C(O)Cc1ccccc1[N+](=O)[O-] ?
Reply: -12.1

Ask: Again, but for C=CCc1cc(OC)c2c(c1)C(OC)CC(c1ccc(OC)c(OC)c1)O2 (centres undefined)
Reply: -34.3

Ask: Further, for COc1cccc(C(=O)NNC(=O)c2ccc3ccccc3c2)c1 ?
Reply: 4.55

Ask: Record: O=[N+]([O-])c1cc(C(F)(F)F)ccc1Oc1cccc(C(F)(F)F)c1
Reply: 2

Ask: What would you report for Cc1ccc(C(=O)OC2C3(C)CCC(C3)C2(C)C)cc1 (centres undefined) ?
Reply: 18.3

Ask: // query: O=C(Nc1nc2ncn(CC(COc3ccccc3)OC(=O)c3ccccc3)c2c(=O)[nH]1)c1ccccc1 (centres undefined)
Reply: 9.55

Ask: Now the compound CCOC(=O)Cc1cccnc1
Reply: -40

Ask: How about this compound: Cc1ccc2nc(-c3ccc(N=NNc4ccc(-c5nc6ccc(C)c(S(=O)(=O)O)c6s5)cc4)cc3)sc2c1S(=O)(=O)O
Reply: 6.85

Ask: Would you mind doing CC1CN(c2ccc(Cl)cc2)CC(C)(C)OC(=O)O1 (centres undefined) as well?
Reply: -16.1

Ask: Another compound to look at: O=C(O)CNC(=O)CNC(=O)C(CCC(=O)OCc1ccccc1)NC(=O)OCc1ccccc1 (centres undefined)
Reply: 12.3

Ask: What do we get for CCOC(=O)C(Cc1ccc(O)cc1)NC(=O)c1cc2c(cn1)[nH]c1ccccc12 (centres undefined) ?
Reply: 16.2

Ask: Same for CCOc1c(N=Nc2ccc(Cl)cc2Cl)c(C)nn1C(N)=S
Reply: 0.15

Ask: Follow-up entry: CNCCN(C)Cc1ccccc1
Reply: -24.6
